Origin of the recorded values: patent US10920238B2

test system: EhELO1; test: Elongation efficiency on fatty acid substrates by EhELO1 expressed in Saccharomyces cerevisiae (in vivo activity assay); format: cell-based, Eranthis hyemalis; conditions: yeast INVSc1 transformant with EhELO1/pHVX2; 0.25 mM free fatty acid substrate with tergitol, 20° C. for 2 days; calculated from peak area of FAMEs; means of four replicates with standard deviation
Endpoint: Elongation efficiency (%)
The figure you give is taken to be in %; do not add the unit.

Would you please look over these solved cases?
[[record]]
chemical_structure = "CCCCC/C=C\\C/C=C\\C/C=C\\C/C=C\\CCCC(=O)O"
test_result = 36.2

[[record]]
chemical_structure = "CCCCC/C=C\\C/C=C\\CCCCCCCCCC(=O)O"
test_result = 48.5

[[record]]
chemical_structure = "CC/C=C\\C/C=C\\C/C=C\\CCCCCCCCCCCC(=O)O"
test_result = 9.7


We next turn to a different compound, shown below.
Inquiry: Read off the recorded Elongation efficiency (%) for CC/C=C\C/C=C\C/C=C\C/C=C\C/C=C\C/C=C\CCC(=O)O
Reply text: 10.8

###

test system: EhELO1; assay: Elongation efficiency on fatty acid substrates by EhELO1 expressed in Saccharomyces cerevisiae (in vivo activity assay); format: cell-based, Eranthis hyemalis; conditions: yeast INVSc1 transformant with EhELO1/pHVX2; 0.25 mM free fatty acid substrate with tergitol, 20° C. for 2 days; calculated from peak area of FAMEs; means of four replicates with standard deviation
Endpoint: Elongation efficiency (%)
Express it in %; write the number only.

For orientation, consider the following solved cases.
[[record]]
chemical_structure = "CCCCC/C=C\\C/C=C\\C/C=C\\CCCCCCC(=O)O"
endpoint = "Elongation efficiency (%)"
u = "%"
test_result = 46.4

[[record]]
chemical_structure = "CC/C=C\\C/C=C\\C/C=C\\C/C=C\\C/C=C\\CCCCCC(=O)O"
endpoint = "Elongation efficiency (%)"
u = "%"
test_result = 31.9

[[record]]
chemical_structure = "CC/C=C\\C/C=C\\C/C=C\\CCCCCCCCCC(=O)O"
endpoint = "Elongation efficiency (%)"
u = "%"
test_result = 61.8

[[record]]
chemical_structure = "CCCCC/C=C\\C/C=C\\CCCCCCCC(=O)O"
endpoint = "Elongation efficiency (%)"
u = "%"
test_result = 44.6

[[record]]
chemical_structure = "CC/C=C\\C/C=C\\C/C=C\\CCCCCCCC(=O)O"
endpoint = "Elongation efficiency (%)"
u = "%"
test_result = 54.7

[[record]]
chemical_structure = "CC/C=C\\C/C=C\\C/C=C\\C/C=C\\CCCCCCC(=O)O"
endpoint = "Elongation efficiency (%)"
u = "%"
test_result = 50.3

[[record]]
chemical_structure = "CC/C=C\\C/C=C\\C/C=C\\C/C=C\\C/C=C\\CCCC(=O)O"
endpoint = "Elongation efficiency (%)"
u = "%"
test_result = 39.8


Inquiry: Return Elongation efficiency (%) for the following molecule: CCCCC/C=C\C/C=C\C/C=C\CCCCC(=O)O
Reply text: 28.3

###

Test system: EhELO1
Assay: Elongation efficiency on fatty acid substrates by EhELO1 expressed in Saccharomyces cerevisiae (in vivo activity assay)
Type: cell-based, Eranthis hyemalis
Conditions: yeast INVSc1 transformant with EhELO1/pHVX2; 0.25 mM free fatty acid substrate with tergitol, 20° C. for 2 days; calculated from peak area of FAMEs; means of four replicates with standard deviation
Experimental: To define the diverse activity of the discovered elongase (EhELO1) from winter aconite, a variety of possible common fatty acids and unusual fatty acids that differ in the number and position of double bonds as well as in the chain length was exogenously supplied to the yeast transformant expressing the elongase EhELO1 for in vivo activity assays. The conversion of substrates to products was measured and used for the comparison of elongation efficiencies among fatty acid substrates. […]
Endpoint: Elongation efficiency (%)
Give the quantity in %, number only.

Example entries and their recorded answers appear below.
[[record]]
compound = "CCCCC/C=C\\C/C=C\\CCCCCCCCCCCC(=O)O [22:2-13, 16, docosadienoic acid]"
test_result = 3.4

[[record]]
compound = "CCC=CCC=CCC=CCC=CCCCCCCCCC(=O)O [22:4-10, 13, 16, 19]"
test_result = 32.7


Inquiry: // fetch Elongation efficiency (%) for CCCCCCCCC=CCCCCCCCCCC(=O)O [20:1-11] ; system: EhELO1
Reply text: 12.6

Inquiry: Jot down Elongation efficiency (%) (EhELO1) of CC/C=C\C/C=C\C/C=C\C/C=C\CCCCC(=O)O [18:4-6,9, 12, 15] .
Reply text: 25.0

###

test system: EhELO1; assay: Elongation efficiency on fatty acid substrates by EhELO1 expressed in Saccharomyces cerevisiae (in vivo activity assay); type: cell-based, Eranthis hyemalis; conditions: yeast INVSc1 transformant with EhELO1/pHVX2; 0.25 mM free fatty acid substrate with tergitol, 20° C. for 2 days; calculated from peak area of FAMEs; means of four replicates with standard deviation
Reported values of Elongation efficiency (%) for individual entries
Entry rule: numbers only, all in %.

[[record]]
compound = "CCCCC/C=C\\C/C=C\\C/C=C\\C/C=C\\CCCCCC(=O)O [22:4-7, 10, 13, 16]"
endpoint = "Elongation efficiency (%)"
test_result = 20.5


Inquiry: Give Elongation efficiency (%) only, for CCCCCCCC/C=C\CCCCCCCC(=O)O [18:1-9] , using EhELO1 data.
Reply text: 3.3

Inquiry: Please indicate recorded Elongation efficiency (%) of CCCCCCCC/C=C\CCCCCCCCCCCC(=O)O [22:1-13] measured with EhELO1.
Reply text: 0.0

Inquiry: Report its Elongation efficiency (%) with EhELO1 as the test system: CCCCCC/C=C\CCCCCCCCCC(=O)O [18:1-11]
Reply text: 49.4
